// provenance: ChEMBL document CHEMBL1138246

- Test system: Mammalian orthoreovirus 1
- EXPERIMENTAL_DETAILS: Antiviral activity against Reovirus 1 in Vero cells reduction of virus-induced cytopathogenicity after 4 days
- Format: functional, organism-based
- EXPERIMENTAL_SETUP: Mammalian orthoreovirus 1, Vero, 96 h
RECORDED_METRIC: EC50

- MOL: "Nc1ccn(C[C@H]2COP(=O)(O)CO2)c(=O)n1"
  RECORDED_METRIC: "EC50"
  MEASUREMENT: "> 200 µg/mL"
- MOL: "Nc1ncn(C[C@H]2COP(=O)(O)CO2)c(=O)n1"
  RECORDED_METRIC: "EC50"
  MEASUREMENT: "> 200 µg/mL"
- MOL: "NC(=O)c1ncn([C@@H]2O[C@H](CO)[C@@H](O)[C@H]2O)n1"
  RECORDED_METRIC: "EC50"
  MEASUREMENT: "200 µg/mL"
